# System: OVCAR-8 ovarian
# measurementProtocol: NCI tumour cell line growth inhibition, 48 h

| molecule | GI50 |
| --- | --- |
| CCCCCCCCCCCCOC1C(CNCC2OC3OC(C)(C)OC3C2NC(=O)Nc2ccc(C(=O)OCC)cc2)OC2OC(C)(C)OC21 (stereo not given) | 2.16 µM |
| CC1=C(CCCOC(=O)NCCCl)C2=C(C)C3(CC3)[C@@](C)(O)C(=O)C2=C1 | 3.4 µM |
| COc1ccc(CNC(=O)COc2ccc(/C=N/Nc3nc4ccccc4s3)cc2)cc1 | 3.93 µM |
| COc1ccccc1NC(=O)c1ccc(/C=C/C(=O)c2nccn2C)cc1 | 0.916 µM |
| COc1nc2c(cc1S(=O)(=O)c1ccccc1)CCc1c-2cnn1-c1ccccc1Cl | 8.7 µM |

----------
# System: K-562 leukemia
# measurementProtocol: NCI tumour cell line growth inhibition, 48 h
Below, each entry is listed with its recorded TGI.

| molecule | tgt | TGI |
| --- | --- | --- |
| O=C1/C(=C/c2ccc([N+](=O)[O-])cc2)CNC/C1=C\c1ccc([N+](=O)[O-])cc1 | K-562 leukemia | 1.21 µM |
| CN(C)c1ccc2c(c1)oc(=O)c1ccccc12 | K-562 leukemia | 26.9 µM |
| OC(c1cccc(C(F)(F)F)c1)c1cnccc1NC1CCCCCC1 (stereo not given) | K-562 leukemia | 4.51 µM |
| O=C(O[C@H](/C=C/c1ccccc1)P1(=O)N(Cc2ccccc2)[C@@H]2CCCC[C@H]2N1Cc1ccccc1)c1ccccc1 | K-562 leukemia | > 100 µM |
| COc1cc2c(NCCCCCCO[N+](=O)[O-])ncnc2c(OC)c1OC | K-562 leukemia | > 100 µM |

----------
# Tested on: HCT-15 colon
# measurementProtocol: NCI tumour cell line growth inhibition, 48 h
experimentalReadout: TGI

| compound | tgt | experimentalResult |
| --- | --- | --- |
| Cc1cc(C)c2c(n1)S(=O)(=O)N(CCCN1CCN(c3cccc(C(F)(F)F)c3)CC1)/C(=C(\O)c1ccc(Cl)cc1)C2=O | HCT-15 colon | 13.9 µM |
| O=C1NC(=O)C2C(=O)NC(=O)C1C2(c1ccccc1)c1ccc(Cl)cc1 (centres undefined) | HCT-15 colon | > 100 µM |
| NNC(=O)c1cnn(-c2ccnc3c(C(F)(F)F)cccc23)c1N | HCT-15 colon | > 100 µM |
| COc1cccc(-c2nc(-c3cnccn3)n(Cc3ccccc3)n2)c1 | HCT-15 colon | > 100 µM |
| CC(=O)OCC1OC(n2c(=S)[nH]c(-c3ccccc3)c(C#N)c2=O)C(OC(C)=O)C(OC(C)=O)C1OC(C)=O (centres undefined) | HCT-15 colon | > 100 µM |
| COc1cc2c(cc1OC)C1C=NC(C(=O)O)(C2)c2ccccc21 (centres undefined) | HCT-15 colon | > 100 µM |
| CCOP(=O)(OCC)/C(F)=C/c1ccccc1 | HCT-15 colon | > 100 µM |
| C[C@]12CCC(=O)C=C1CC[C@@H]1C2CC[C@]2(C)NC(=O)C(C#N)CC12 (some centres undefined) | HCT-15 colon | > 100 µM |
| N#Cc1c(O)c2c(c(O)c1C#N)C(=O)c1ccccc1C2=O | HCT-15 colon | > 28.1 µM |
| COC(=O)C1CC(C=[N+](C)C)=C(SC)N1 (centres undefined) | HCT-15 colon | > 100 µM |
| c1ccc(N=c2snc(-c3ccccc3)s2)cc1 | HCT-15 colon | > 100 µM |
| C1CN2N3CCCC23C1 (centres undefined) | HCT-15 colon | > 100 µM |
| COc1cc2c(cc1O)[C@H](Cc1ccc(Oc3cc(C[C@H]4c5cc(OC)c(OC)cc5CCN4C)ccc3OC)cc1)NCC2 | HCT-15 colon | 21.4 µM |
| CC(=O)/C=C/c1cccc(N=S)c1 | HCT-15 colon | 31.9 µM |

----------
# Tested on: M14 melanoma
# measurementProtocol: NCI tumour cell line growth inhibition, 48 h
Below, each entry is listed with its recorded TGI.
experimentalReadout: TGI

| molecule | experimentalReadout | experimentalResult |
| --- | --- | --- |
| CC1=CC(=O)N(n2c(C)n[nH]c2=O)C1=O | TGI | > 100 µM |
| COc1ccc(/C=C(/C(=O)O)c2cc(OC)c(OC)c(OC)c2)cc1 | TGI | 99.1 µM |
| CC[n+]1ccc2c(c1)C(=O)c1nccc3c1c-2nc1ccccc13 | TGI | 4.38 µM |
| N#CC(C#N)=C1CCCS(=O)(=O)c2ccccc21 | TGI | > 100 µM |
| CCOC(=O)C(=O)N1C(C)=C(C(=O)OCC)CC(C(=O)OCC)=C1C | TGI | > 100 µM |
| O=C1NC(=S)NC(=O)C1C(c1ccccc1[N+](=O)[O-])C1C(=O)NC(=S)NC1=O | TGI | > 100 µM |
| OC(c1cccc(C(F)(F)F)c1)c1cnccc1NC1CCCCCC1 (configuration not stated) | TGI | 3.64 µM |
| COc1cc([C@@H]2c3cc4c(cc3[C@@H](NC(=O)c3cccc([N+](=O)[O-])c3)C3COC(=O)[C@@H]32)OCO4)cc(OC)c1O (some centres not stated) | TGI | > 19.8 µM |
| CC(=O)c1ccc(N(/C=C/C(=O)C(F)(F)F)CC(=O)c2ccc(Cl)c(Cl)c2)cc1 | TGI | 26.7 µM |
| CC(C)/C(Cl)=N\OC(=O)NNc1ccccc1 | TGI | > 56.3 µM |
| O=C1/C(=C/c2ccccc2)CN(C(=O)Oc2ccc(Cl)cc2)C/C1=C\c1ccccc1 | TGI | 3.48 µM |
| CO/N=C1/c2sccc2[C@H](NC(=O)CNC(=O)OC(C)(C)C)[C@@H]1O | TGI | > 100 µM |
| O=C(O)c1ccc(NS(=O)(=O)Cc2ccccc2)cc1 | TGI | > 100 µM |
| CN1CN(c2ccccc2)C2(CCN(CCCC3(c4cccs4)OCCO3)CC2)C1=O | TGI | > 100 µM |
| Cc1cc2cccc(Cl)c2nc1C(=O)c1ccccc1 | TGI | > 100 µM |
| COC(c1ccc(C(C)(C)C)cc1)(c1ccc(C(C)(C)C)cc1)c1cc(C(O)(c2cc(C(OC)(c3ccc(C(C)(C)C)cc3)c3ccc(C(C)(C)C)cc3)c(C)cc2C)c2cc(C(OC)(c3ccc(C(C)(C)C)cc3)c3ccc(C(C)(C)C)cc3)c(C)cc2C)c(C)cc1C | TGI | > 100 µM |
| O=C(O)Cc1c[nH]c2ccc(F)cc12 | TGI | > 100 µM |
| COc1ccc(NC2Oc3cc4c(cc3C(c3cc(OC)c(OC)c(OC)c3)C2C)OCO4)cc1 (configuration not stated) | TGI | > 45.1 µM |
| O=C(OCc1ccccc1)OOC(=O)OCc1ccccc1 | TGI | > 100 µM |
| C=CCCCC12CCCc3cccc(c31)NC2=O (configuration not stated) | TGI | 31.1 µM |
| CN(C)c1ccc2c(c1)oc(=O)c1ccccc12 | TGI | 26.5 µM |
| CC(=O)/C=C/c1cccc(N=S)c1 | TGI | 22.4 µM |
| O=C(O[C@H](/C=C/c1ccccc1)P1(=O)N(Cc2ccccc2)[C@@H]2CCCC[C@H]2N1Cc1ccccc1)c1ccccc1 | TGI | > 100 µM |
| O=[N+]([O-])C(=C(Sc1ccccc1)Sc1ccccc1)C(Cl)=C(Cl)Cl | TGI | 1.17 µM |
| CC1=CCCC(OC(N)=O)C1 (configuration not stated) | TGI | > 100 µM |
| COc1cccc(-c2nn(-c3ccccc3)cc2-c2ccnc(NCCCNS(=O)(=O)c3cccc(F)c3)c2)c1 | TGI | > 100 µM |
| CCOC(=O)c1c(N)n(-c2ccccc2)c(=S)n(-c2ccccc2)c1=O | TGI | > 100 µM |

----------
# Tested on: SK-OV-3 ovarian
# measurementProtocol: NCI tumour cell line growth inhibition, 48 h

| compound | TGI |
| --- | --- |
| N#Cc1c2c(c(Nc3ccc(F)cc3)n3c1nc1ccccc13)CCC2 | 26.8 µM |
| O=C(/C=C/c1cccs1)c1ccc(Cl)cc1 | > 100 µM |
| CC1CC(C#N)=C2NCCCCN2C1=O (stereo not drawn) | > 100 µM |
| CC(C)(C)C1=NC(S)NC(CCC(=O)Nc2ccccc2[N+](=O)[O-])=C1 (stereo not drawn) | > 100 µM |
| Cc1nc2ccc([N+](=O)[O-])cc2c(=O)n1C(=S)Nc1cccc(Cl)c1 | 71.8 µM |
| O=c1nc2c(c(-c3cccc(Cl)c3)[nH]1)COC/C2=C\c1cccc(Cl)c1 | > 100 µM |
| CN(C)c1ccc(/C(Br)=C2\OC(=O)c3ccccc32)cc1 | > 100 µM |
| Cc1cccc(N(CCC#N)S(=O)(=O)c2ccccc2)c1 | > 100 µM |
| O=c1[nH]c(=O)n(C2CC(O)C(CO)O2)cc1C#Cc1c(F)c(F)c(F)c(F)c1F (stereo not drawn) | > 100 µM |
| O=C(CCc1ccc(O)cc1)c1c(O)cc(O)cc1OC1OC(CO)C(O)C(O)C1O (stereo not drawn) | > 100 µM |
| CC(=O)CC(=O)c1cc2c(=O)oc(C)cc2oc1=O | > 37.5 µM |
| O=C1Oc2cc3c(c4cccc1c24)OCN(c1ccc(Cl)cc1)C3 | > 100 µM |
| O=C(O)Cc1ccc2nc(COC(=O)c3ccccc3)sc2c1 | > 100 µM |
| ClCc1ccccc1CSc1ncnc2nc[nH]c12 | > 60 µM |
| Cc1ccc(C(=O)Nc2ccc(CP(=O)(O)O)cc2)cc1NC(=O)c1cccc(NC(=O)Nc2cccc(C(=O)Nc3cc(C(=O)Nc4ccc(CP(=O)(O)O)cc4)ccc3C)c2)c1 | > 100 µM |
| CC(C)/C(Cl)=N\OC(=O)NNc1ccccc1 | > 100 µM |
| C[C@]12CC/C(=N\O)C=C1CC[C@@H]1[C@@H]2CC[C@]2(C)C(=N/O)/C(=C/c3cccnc3)C[C@@H]12 | > 100 µM |
| C1CN2N3CCCC23C1 (stereo not drawn) | > 100 µM |
| COc1cccc(-c2nc(-c3cnccn3)n(Cc3ccccc3)n2)c1 | > 100 µM |
| C/C(=N\NC(N)=S)c1ccc(C)cc1C | > 100 µM |
| Brc1ccc2c3c1[C@@H]1O[C@@H]1c1cccc(c1-3)[C@@H]1O[C@H]21 | > 71.2 µM |
| CC1=C2[C@@H](CC1)[C@]1(C)O[C@@](C(C)C)(C[C@H]1OC(=O)[C@H](C)O)[C@H]2OC(=O)/C=C/c1ccccc1 | 38 µM |
| COc1cc2c(cc1OC)C(=O)/C(=C/c1cc(C)c(O)c(C)c1)C2 | > 100 µM |
| O=C(O)c1cc(S(=O)(=O)N=NC=C2c3ccccc3N(O)c3ccccc32)ccc1O | 92.2 µM |
| O=[n+]1c(CBr)c(CBr)n([O-])c2ccccc21 | > 100 µM |
| COc1ccc(NC2Oc3cc4c(cc3C(c3cc(OC)c(OC)c(OC)c3)C2C)OCO4)cc1 (stereo not drawn) | > 100 µM |
| O=S(=O)(O)C(O)/C=C/c1ccccc1 (stereo not drawn) | > 100 µM |
| S=C1NCCN1C1=Nc2ccccc2CO1 | > 100 µM |
| COc1cccc(-c2nn(-c3ccccc3)cc2-c2ccnc(NCCCNS(=O)(=O)c3cccc(F)c3)c2)c1 | > 100 µM |
| O=C(Cc1ccc(/C=C/C(=O)c2ncc[nH]2)cc1)Nc1ccc(Cl)cc1 | > 25 µM |
| CC1CCC[P+](Cc2ccccc2)(c2ccccc2)CC1 (stereo not drawn) | > 100 µM |
| CNC(=O)c1cc(Oc2ccc3c(c2)sc2nc(-c4ccc(N)cc4)cn23)ccn1 | > 100 µM |
| CCCNC(=O)OCc1c(COC(=O)NCCC)c(-c2ccc(Cl)c(Cl)c2)n2c1CCC2 | 10.5 µM |
| COc1nc2c(cc1S(=O)(=O)c1ccccc1)CCc1c-2cnn1-c1ccccc1Cl | > 100 µM |
| CN(O)C(=O)Cc1ccc(OCc2cccc(Cl)c2)cc1 | > 100 µM |
| CC1=CC(=O)N(n2c(C)n[nH]c2=O)C1=O | > 100 µM |
| O=C1OC[C@@H]2Cc3c([nH]c4ccccc34)[C@@H](c3ccc(O)cc3)N12 | > 95.1 µM |
| COC(=O)C(CC(=O)c1cc2c(cc1I)OCO2)Cc1cc(OC)c(OC)c(OC)c1I (stereo not drawn) | > 100 µM |
| OCc1ccccc1C1CSCSC1 | > 100 µM |
| Fc1ccc(-c2nn(-c3ccccc3)cc2-c2nc3ccccc3o2)cc1 | > 100 µM |
| CC(=O)OCC1OC(n2c(=S)[nH]c(-c3ccccc3)c(C#N)c2=O)C(OC(C)=O)C(OC(C)=O)C1OC(C)=O (stereo not drawn) | > 100 µM |
| CC(=O)Nc1ccc(Cl)c(Cl)c1 | > 100 µM |
| Nc1ncnc2c1ncn2C(=O)NC12CC3CC(CC(C3)C1)C2 | > 100 µM |
